tested on: Lolium rigidum (LOLRI); test: Pre-emergence herbicidal action against Lolium rigidum; type: in vivo; conditions: 1280 g/ha; scored visually after about 3 weeks vs untreated controls; 100% = plants have died, 0% = like control plants
Measurement label: Pre-emergence action against Lolium rigidum (LOLRI) (%)

{"Compound structure string": "Cc1ccc(Cc2ccc(F)cc2F)c(Oc2ncccn2)n1", "Tested target": "Lolium rigidum (LOLRI)", "Observed result": 90}
{"Compound structure string": "Cc1ccc(Cc2ccccc2)c(Oc2ncc(F)cn2)n1", "Tested target": "Lolium rigidum (LOLRI)", "Observed result": 90}
{"Compound structure string": "COc1cc(Cc2ccc(C)nc2Oc2ncc(Cl)cn2)ccc1F", "Tested target": "Lolium rigidum (LOLRI)", "Observed result": 90}
{"Compound structure string": "Cc1cc(C)c(Cc2ccc(C)c(F)c2)c(Oc2ncc(F)cn2)n1", "Tested target": "Lolium rigidum (LOLRI)", "Observed result": 90}
{"Compound structure string": "Cc1ccc(Oc2ccc(Cl)cc2)c(Oc2ncc(C(F)(F)F)cn2)n1", "Tested target": "Lolium rigidum (LOLRI)", "Observed result": 100}
{"Compound structure string": "Cc1ccnc(Oc2ncccn2)c1Sc1ccc(F)cc1F", "Tested target": "Lolium rigidum (LOLRI)", "Observed result": 100}
{"Compound structure string": "Cc1ccc(Cc2ccc(F)cc2F)c(Oc2ncc(F)cn2)n1", "Tested target": "Lolium rigidum (LOLRI)", "Observed result": 90}
{"Compound structure string": "COc1cc(Oc2ccc(C)nc2Oc2ncc(Cl)cn2)ccc1F", "Tested target": "Lolium rigidum (LOLRI)", "Observed result": 90}
{"Compound structure string": "Cc1ccc(Oc2ccc(Cl)cc2)c(Oc2ncc(F)cn2)n1", "Tested target": "Lolium rigidum (LOLRI)", "Observed result": 90}
{"Compound structure string": "Cc1cc(C)c(Cc2ccc(Cl)cc2)c(Oc2ncc(F)cn2)n1", "Tested target": "Lolium rigidum (LOLRI)", "Observed result": 100}
{"Compound structure string": "COc1cc(Cc2ccc(C)nc2Oc2ncc(C(F)(F)F)cn2)ccc1F", "Tested target": "Lolium rigidum (LOLRI)", "Observed result": 90}
{"Compound structure string": "Cc1ccc(Oc2ccccc2)c(Oc2ncc(Cl)cn2)n1", "Tested target": "Lolium rigidum (LOLRI)", "Observed result": 100}
{"Compound structure string": "Cc1ccc(Oc2ccc(Cl)cc2)c(Oc2ncc(Cl)cn2)n1", "Tested target": "Lolium rigidum (LOLRI)", "Observed result": 90}
{"Compound structure string": "Cc1ccc(Oc2ccccc2)c(Oc2ncc(F)cn2)n1", "Tested target": "Lolium rigidum (LOLRI)", "Observed result": 90}
{"Compound structure string": "Cc1cc(C)c(Cc2ccc(F)cc2)c(Oc2ncc(F)cn2)n1", "Tested target": "Lolium rigidum (LOLRI)", "Observed result": 100}
{"Compound structure string": "Cc1ccnc(Oc2ncccn2)c1Sc1cccc(Cl)c1", "Tested target": "Lolium rigidum (LOLRI)", "Observed result": 100}
{"Compound structure string": "Cc1ccnc(Oc2ncccn2)c1Sc1ccccc1", "Tested target": "Lolium rigidum (LOLRI)", "Observed result": 90}
{"Compound structure string": "Cc1ccc(Cc2ccccc2)c(Oc2ncccn2)n1", "Tested target": "Lolium rigidum (LOLRI)", "Observed result": 90}
{"Compound structure string": "COc1cc(Oc2ccc(C)nc2Oc2ncc(F)cn2)ccc1F", "Tested target": "Lolium rigidum (LOLRI)", "Observed result": 100}
{"Compound structure string": "COc1c(F)ccc(Cc2c(C)cc(C)nc2Oc2ncc(F)cn2)c1F", "Tested target": "Lolium rigidum (LOLRI)", "Observed result": 100}
{"Compound structure string": "COc1cc(Cc2ccc(C)nc2Oc2ncccn2)ccc1F", "Tested target": "Lolium rigidum (LOLRI)", "Observed result": 90}
{"Compound structure string": "Cc1cc(C)c(Cc2ccc(F)cc2F)c(Oc2ncc(F)cn2)n1", "Tested target": "Lolium rigidum (LOLRI)", "Observed result": 100}
{"Compound structure string": "Cc1cc(C)c(Cc2ccccc2)c(Oc2ncc(F)cn2)n1", "Tested target": "Lolium rigidum (LOLRI)", "Observed result": 100}
{"Compound structure string": "Cc1ccc(Cc2c(C)cc(C)nc2Oc2ncc(F)cn2)cc1", "Tested target": "Lolium rigidum (LOLRI)", "Observed result": 90}
{"Compound structure string": "Cc1ccc(Cc2ccccc2)c(Oc2ncc(Cl)cn2)n1", "Tested target": "Lolium rigidum (LOLRI)", "Observed result": 100}
{"Compound structure string": "Cc1cc(C)c(Cc2ccc(Cl)c(F)c2)c(Oc2ncc(F)cn2)n1", "Tested target": "Lolium rigidum (LOLRI)", "Observed result": 90}
{"Compound structure string": "COc1cc(Cc2c(C)cc(C)nc2Oc2ncc(F)cn2)ccc1F", "Tested target": "Lolium rigidum (LOLRI)", "Observed result": 100}
{"Compound structure string": "COc1cccc(Cc2c(C)cc(C)nc2Oc2ncc(F)cn2)c1", "Tested target": "Lolium rigidum (LOLRI)", "Observed result": 100}
{"Compound structure string": "Cc1ccc(Oc2ccccc2)c(Oc2ncccn2)n1", "Tested target": "Lolium rigidum (LOLRI)", "Observed result": 90}
